Origin of measurements: patent US5591714A

Test system: Enterococcus faecalis 2041
test: MIC, standard agar-dilution assay
Type: cell-based
observed-property: MIC (µg/mL)
Quick note: give the figure in µg/mL, leave out the unit.

Supply recorded MIC for CN[C@H](CC(C)C)C(=O)N[C@H]1C(=O)N[C@@H](CC(N)=O)C(=O)N[C@H]2C(=O)N[C@H]3C(=O)N[C@H](C(=O)N[C@H](C(=O)O)c4cc(O)cc(O)c4-c4cc3ccc4O)[C@H](O[C@H]3C[C@](C)(NCc4ccc(Cl)cc4)[C@@H](O)[C@H](C)O3)c3ccc(cc3)Oc3cc2cc(c3O[C@@H]2O[C@H](CO)[C@@H](O)[C@H](O)[C@H]2O[C@H]2C[C@](C)(NCc3ccc(Cl)cc3)[C@@H](O)[C@H](C)O2)Oc2ccc(cc2Cl)[C@H]1O [Compound 23] here.
4

Recall and state the measured MIC for CNC(CC(C)C)C(=O)NC1C(=O)NC(CC(N)=O)C(=O)NC2C(=O)NC3C(=O)NC(C(=O)NC(C(=O)O)c4cc(O)cc(O)c4-c4cc3ccc4O)C(OC3CC(C)(NCc4ccccc4)C(O)C(C)O3)c3ccc(c(Cl)c3)Oc3cc2cc(c3O)Oc2ccc(cc2Cl)C1O (stereo not shown) [Compound 79] .
1

# return recorded MIC for input CN[C@H](CC(C)C)C(=O)N[C@H]1C(=O)N[C@@H](CC(N)=O)C(=O)N[C@H]2C(=O)N[C@H]3C(=O)N[C@H](C(=O)N[C@H](C(=O)O)c4cc(O)cc(O)c4-c4cc3ccc4O)[C@H](O[C@H]3C[C@](C)(NCc4ccccc4)[C@@H](O)[C@H](C)O3)c3ccc(cc3)Oc3cc2cc(c3O[C@@H]2O[C@H](CO)[C@@H](O)[C@H](O)[C@H]2O[C@H]2C[C@](C)(NCc3ccccc3)[C@@H](O)[C@H](C)O2)Oc2ccc(cc2Cl)[C@H]1O [Compound 11]
1

Tell me MIC reported for CCN(CC)c1ccc(CN[C@@]2(C)C[C@H](O[C@H]3[C@H](Oc4c5cc6cc4Oc4ccc(cc4Cl)[C@@H](O)[C@@H](NC(=O)[C@@H](CC(C)C)NC)C(=O)N[C@@H](CC(N)=O)C(=O)N[C@H]6C(=O)N[C@H]4C(=O)N[C@H](C(=O)N[C@H](C(=O)O)c6cc(O)cc(O)c6-c6cc4ccc6O)[C@H](O[C@H]4C[C@](C)(N)[C@@H](O)[C@H](C)O4)c4ccc(cc4)O5)O[C@H](CO)[C@@H](O)[C@@H]3O)O[C@@H](C)[C@@H]2O)cc1 [Compound 17]
1

Identify measured MIC corresponding to CCCCCN[C@@]1(C)C[C@H](O[C@H]2[C@H](Oc3c4cc5cc3Oc3ccc(cc3Cl)[C@@H](O[C@H]3C[C@](C)(N)[C@@H](O)[C@H](C)O3)[C@@H]3NC(=O)[C@H](NC(=O)[C@@H]5NC(=O)[C@H](CC(N)=O)NC(=O)[C@H](NC(=O)[C@@H](CC(C)C)NC)[C@H](O)c5ccc(c(Cl)c5)O4)c4ccc(O)c(c4)-c4c(O)cc(O)cc4[C@@H](C(=O)O)NC3=O)O[C@H](CO)[C@@H](O)[C@@H]2O)O[C@@H](C)[C@@H]1O [Compound 34]
1

Give me measured MIC, please, for this compound: CCCCCCC(=O)N[C@@]1(C)C[C@H](O[C@H]2[C@H](Oc3c4cc5cc3Oc3ccc(cc3Cl)[C@@H](O)[C@@H](NC(=O)[C@@H](CC(C)C)NC)C(=O)N[C@@H](CC(N)=O)C(=O)N[C@H]5C(=O)N[C@H]3C(=O)N[C@H](C(=O)N[C@H](C(=O)O)c5cc(O)cc(O)c5-c5cc3ccc5O)[C@H](O[C@H]3C[C@](C)(N)[C@@H](O)[C@H](C)O3)c3ccc(cc3)O4)O[C@H](CO)[C@@H](O)[C@@H]2O)O[C@@H](C)[C@@H]1O [Compound 27]
2

---

System: Enterococcus faecalis 2041
test: MIC, standard agar-dilution assay
Assay type: cell-based
Kindly supply the reported MIC values for the records listed here.

Return MIC (reported value) for this compound: CN[C@H](CC(C)C)C(=O)N[C@H]1C(=O)N[C@@H](CC(N)=O)C(=O)N[C@H]2C(=O)N[C@H]3C(=O)N[C@H](C(=O)N[C@H](C(=O)O)c4cc(O)cc(O)c4-c4cc3ccc4O)[C@H](O[C@H]3C[C@](C)(N)[C@@H](O)[C@H](C)O3)c3ccc(cc3)Oc3cc2cc(c3O[C@@H]2O[C@H](CO)[C@@H](O)[C@H](O)[C@H]2O[C@H]2C[C@](C)(NCCc3ccccc3)[C@@H](O)[C@H](C)O2)Oc2ccc(cc2Cl)[C@H]1O [Compound 24]
.5 µg/mL

// Input: CNC(CC(C)C)C(=O)NC1C(=O)NC(CC(N)=O)C(=O)NC2C(=O)NC3C(=O)NC(C(=O)NC(C(=O)O)c4cc(O)cc(O)c4-c4cc3ccc4O)C(OC3CC(C)(NCc4ccccc4)C(O)C(C)O3)c3ccc(cc3)Oc3cc2cc(c3O)Oc2ccc(cc2Cl)C1O (stereo not drawn) [Compound 73] . Output its MIC only.
2 µg/mL

Could you please provide reported MIC for CNC(CC(C)C)C(=O)NC1C(=O)NC(CC(N)=O)C(=O)NC2C(=O)NC3C(=O)NC(C(=O)NC(C(=O)O)c4cc(O)cc(O)c4-c4cc3ccc4O)C(OC3CC(C)(N)C(O)C(C)O3)c3ccc(c(Cl)c3)Oc3cc2cc(c3OC2OC(CO)C(O)C(O)C2OC2CC(C)(NCc3ccc(F)cc3)C(O)C(C)O2)Oc2ccc(cc2Cl)C1O (stereo not drawn) [Compound 67] ? Thanks!
.5 µg/mL

Indicate its recorded MIC; the compound in question is CCN(CC)c1ccc(CNC2(C)CC(OC3C(Oc4c5cc6cc4Oc4ccc(cc4Cl)C(OC4CC(C)(N)C(O)C(C)O4)C4NC(=O)C(NC(=O)C6NC(=O)C(CC(N)=O)NC(=O)C(NC(=O)C(CC(C)C)NC)C(O)c6ccc(c(Cl)c6)O5)c5ccc(O)c(c5)-c5c(O)cc(O)cc5C(C(=O)O)NC4=O)OC(CO)C(O)C3O)OC(C)C2O)cc1 (stereo not drawn) [Compound 56]
.5 µg/mL

// fetch MIC given entry CNC(CC(C)C)C(=O)NC1C(=O)NC(CC(N)=O)C(=O)NC2C(=O)NC3C(=O)NC(C(=O)NC(C(=O)O)c4cc(O)cc(O)c4-c4cc3ccc4O)C(OC3CC(C)(N)C(O)C(C)O3)c3ccc(c(Cl)c3)Oc3cc2cc(c3OC2OC(CO)C(O)C(O)C2OC2CC(C)(NCc3ccccc3Cl)C(O)C(C)O2)Oc2ccc(cc2Cl)C1O (stereo not drawn) [Compound 62]
.5 µg/mL

Read off the recorded MIC for CNC(CC(C)C)C(=O)NC1C(=O)NC(CC(N)=O)C(=O)NC2C(=O)NC3C(=O)NC(C(=O)NC(C(=O)O)c4cc(O)cc(O)c4-c4cc3ccc4O)C(OC3CC(C)(NCc4ccccc4)C(O)C(C)O3)c3ccc(c(Cl)c3)Oc3cc2cc(c3OC2OC(CO)C(O)C(O)C2O)Oc2ccc(cc2Cl)C1O (stereo not drawn) [Compound 76]
1 µg/mL

---

System: Staphylococcus epidermidis EPI270
test: MIC, standard agar-dilution assay
Format: cell-based
observed-property: MIC (µg/mL)
Field format: number, assumed µg/mL, no unit text.

For the molecule CN[C@H](CC(C)C)C(=O)N[C@H]1C(=O)N[C@@H](CC(N)=O)C(=O)N[C@H]2C(=O)N[C@H]3C(=O)N[C@H](C(=O)N[C@H](C(=O)O)c4cc(O)cc(O)c4-c4cc3ccc4O)[C@H](O[C@H]3C[C@](C)(NCc4ccccc4)[C@@H](O)[C@H](C)O3)c3ccc(cc3)Oc3cc2cc(c3O[C@@H]2O[C@H](CO)[C@@H](O)[C@H](O)[C@H]2O[C@H]2C[C@](C)(NCc3ccccc3)[C@@H](O)[C@H](C)O2)Oc2ccc(cc2Cl)[C@H]1O , give its measured MIC value.
1

Please give the documented MIC of CCCCCN(C)[C@H](CC(C)C)C(=O)N[C@H]1C(=O)N[C@@H](CC(N)=O)C(=O)N[C@H]2C(=O)N[C@H]3C(=O)N[C@H](C(=O)N[C@H](C(=O)O)c4cc(O)cc(O)c4-c4cc3ccc4O)[C@H](O[C@H]3C[C@](C)(N)[C@@H](O)[C@H](C)O3)c3ccc(c(Cl)c3)Oc3cc2cc(c3O[C@@H]2O[C@H](CO)[C@@H](O)[C@H](O)[C@H]2O[C@H]2C[C@](C)(N)[C@@H](O)[C@H](C)O2)Oc2ccc(cc2Cl)[C@H]1O
1

Fill in reported MIC for this entry: CCCCCCCCN[C@@]1(C)C[C@H](O[C@H]2[C@H](Oc3c4cc5cc3Oc3ccc(cc3Cl)[C@@H](O[C@H]3C[C@](C)(N)[C@@H](O)[C@H](C)O3)[C@@H]3NC(=O)[C@H](NC(=O)[C@@H]5NC(=O)[C@H](CC(N)=O)NC(=O)[C@H](NC(=O)[C@@H](CC(C)C)NC)[C@H](O)c5ccc(c(Cl)c5)O4)c4ccc(O)c(c4)-c4c(O)cc(O)cc4[C@@H](C(=O)O)NC3=O)O[C@H](CO)[C@@H](O)[C@@H]2O)O[C@@H](C)[C@@H]1O
1

Give a short answer stating reported MIC for CNC(CC(C)C)C(=O)NC1C(=O)NC(CC(N)=O)C(=O)NC2C(=O)NC3C(=O)NC(C(=O)NC(C(=O)O)c4cc(O)cc(O)c4-c4cc3ccc4O)C(OC3CC(C)(NCc4ccccc4)C(O)C(C)O3)c3ccc(c(Cl)c3)Oc3cc2cc(c3OC2OC(CO)C(O)C(O)C2O)Oc2ccc(cc2Cl)C1O (stereo not shown) .
2

Item CNC(CC(C)C)C(=O)NC1C(=O)NC(CC(N)=O)C(=O)NC2C(=O)NC3C(=O)NC(C(=O)NC(C(=O)O)c4cc(O)cc(O)c4-c4cc3ccc4O)C(OC3CC(C)(N)C(O)C(C)O3)c3ccc(c(Cl)c3)Oc3cc2cc(c3OC2OC(CO)C(O)C(O)C2OC2CC(C)(NCc3ccc(F)cc3)C(O)C(C)O2)Oc2ccc(cc2Cl)C1O (stereo not shown) : provide MIC
2

Kindly indicate its recorded MIC. Item: CNC(CC(C)C)C(=O)NC1C(=O)NC(CC(N)=O)C(=O)NC2C(=O)NC3C(=O)NC(C(=O)NC(C(=O)O)c4cc(O)cc(O)c4-c4cc3ccc4O)C(OC3CC(C)(NCc4ccc(F)cc4)C(O)C(C)O3)c3ccc(c(Cl)c3)Oc3cc2cc(c3OC2OC(CO)C(O)C(O)C2OC2CC(C)(N)C(O)C(C)O2)Oc2ccc(cc2Cl)C1O (stereo not shown)
2

Determine from records and report MIC for CCCCCCCCCCN[C@@]1(C)C[C@H](O[C@H]2[C@H](Oc3c4cc5cc3Oc3ccc(cc3Cl)[C@@H](O[C@H]3C[C@](C)(N)[C@@H](O)[C@H](C)O3)[C@@H]3NC(=O)[C@H](NC(=O)[C@@H]5NC(=O)[C@H](CC(N)=O)NC(=O)[C@H](NC(=O)[C@@H](CC(C)C)NC)[C@H](O)c5ccc(c(Cl)c5)O4)c4ccc(O)c(c4)-c4c(O)cc(O)cc4[C@@H](C(=O)O)NC3=O)O[C@H](CO)[C@@H](O)[C@@H]2O)O[C@@H](C)[C@@H]1O
1
